Organism: Homo sapiens
run_description: Fraction escaping gut-wall elimination in human
condition_parameters: in vivo
Where Fg equals or exceeds 0.9, the correct label is label 1; where it does not, the label is label 0.

Some solved cases for reference:
compound: O=P1(N(CCCl)CCCl)NCCCO1 (stereo not drawn) [CYCLOPHOSPHAMIDE ANHYDROUS]
class: label 0

compound: O=C(O)c1cn(C2CC2)c2cc(N3CCNCC3)c(F)cc2c1=O [CIPROFLOXACIN]
class: label 1

compound: CC(C)NCC(O)COc1ccc(CC(N)=O)cc1 (stereo not drawn) [ATENOLOL]
class: label 1

compound: CC(C)NCC(O)COc1ccc(CCOCC2CC2)cc1 (stereo not drawn) [BETAXOLOL]
class: label 1

compound: CN1[C@@H]2C[C@@H](OC(=O)[C@H](CO)c3ccccc3)C[C@H]1[C@@H]1O[C@@H]12 [SCOPOLAMINE]
class: label 0

compound: CN1[C@@H]2CC[C@H]1C[C@@H](OC(=O)C(CO)c1ccccc1)C2 (stereo partly drawn) [ATROPINE]
class: label 0

Inquiry: Does Clc1ccc2nsnc2c1NC1=NCCN1 [TIZANIDINE] have a reported Fg of at least 0.9?
Reply text: label 0

Inquiry: Does CN1CCC[C@H]1c1cccnc1 [NICOTINE] have a reported Fg of at least 0.9?
Reply text: label 0

Inquiry: Does CCCc1cc(=O)[nH]c(=S)[nH]1 [PROPYLTHIOURACIL] have a reported Fg of at least 0.9?
Reply text: label 1

Inquiry: Does CCCCc1oc2ccccc2c1C(=O)c1cc(I)c(OCCN(CC)CC)c(I)c1 [AMIODARONE] have a reported Fg of at least 0.9?
Reply text: label 0

Inquiry: Does Cc1cc(NS(=O)(=O)c2ccc(N)cc2)no1 [SULFAMETHOXAZOLE] have a reported Fg of at least 0.9?
Reply text: label 1

---

Provide the recorded CL for the entries that follow.
Species: Homo sapiens
run_description: Hepatic clearance in human
condition_parameters: in vivo
One number for each entry, in mL/min/kg.

Consider the worked cases shown below.
molecule: CC(C)NCC(O)COc1ccc(COCCOC(C)C)cc1 (stereo unspecified)
observed: 1.4
--
molecule: CCCNC(=O)NS(=O)(=O)c1ccc(Cl)cc1 [CHLORPROPAMIDE]
observed: 0.036
--
molecule: CC(C)(C)NCC(O)COc1cccc2c1CC(O)C(O)C2 (stereo unspecified)
observed: 1.1
--
molecule: CC(C)N(CCC(C(N)=O)(c1ccccc1)c1ccccn1)C(C)C (stereo unspecified) [DISOPYRAMIDE]
observed: 0.4
--
molecule: CC(C)(C)NC(=O)[C@H]1CC[C@H]2[C@@H]3CC=C4C=C(C(=O)O)CC[C@]4(C)[C@H]3CC[C@]12C [EPRISTERIDE]
observed: 0.3
--
molecule: CC(C)c1nc(CN(C)C(=O)N[C@H](C(=O)N[C@@H](Cc2ccccc2)C[C@H](O)[C@H](Cc2ccccc2)NC(=O)OCc2cncs2)C(C)C)cs1
observed: 1.2

Record CL for all entries; do not skip any.
1. COc1cc(OC)c(C(=O)CCCN2CCCC2)c(OC)c1
2. CCCCCNC(=N)N/N=C/c1c[nH]c2ccc(OC)cc12
3. COc1ccc(Cl)cc1C(=O)NCCc1ccc(S(=O)(=O)NC(=O)NC2CCCCC2)cc1 [GLYBURIDE]
4. CN[C@@H]1CCc2[nH]c3ccc(C(N)=O)cc3c2C1

Reply text:
[4.3, 17.6, 0.8, 1.5]

Record CL for all entries; do not skip any.
1. COCCCOc1ccnc(C[S+]([O-])c2nc3ccccc3[nH]2)c1C (stereo unspecified)
2. CNC(=O)Oc1ccc2c(c1)[C@]1(C)CCN(C)[C@@H]1N2C

Reply text:
1: 4; 2: 5.5

Record CL for all entries; do not skip any.
1. Cc1ncc2n1-c1ccc(Cl)cc1C(c1ccccc1F)=NC2
2. c1ccc(C2(c3ccccc3)CC2C2=NCCN2)cc1 (stereo unspecified)
3. Cn1c(=O)c2c(ncn2C)n(C)c1=O
4. O=C(O)CCCc1ccc(N(CCCl)CCCl)cc1
5. COc1c(N2CCNC(C)C2)c(F)cc2c(=O)c(C(=O)O)cn(C3CC3)c12 (stereo unspecified)
6. Cn1c(=O)c2[nH]cnc2n(C)c1=O.O

Reply text:
5.3
4.4
1.4
2.8
0.5
0.8
